Test: Clearance in iv dosed rat by cassette studies
Assay type: ADME, organism-based
Conditions: in vivo
MEASURED ENDPOINT: clearance (mL/min/kg)

Reference set, count: 4
| STRUCTURE SMILES STRING | UNIT | QUANTITATIVE RESULT |
| --- | --- | --- |
| Cc1cccc([C@@]2(O)C[C@H](C(=O)Nc3ccc(-n4ccccc4=O)cn3)N(C(=O)Nc3ccc(Cl)cc3)C2)c1 | mL/min/kg | 6.78 |
| Cc1ccccc1[C@@]1(O)C[C@H](C(=O)Nc2ccc(-n3ccccc3=O)cn2)N(C(=O)Nc2ccc(Cl)cc2)C1 | mL/min/kg | 5.12 |
| O=C(Nc1ccc(-n2ccccc2=O)cn1)[C@H]1C[C@](O)(c2ccc(F)cc2)CN1C(=O)Nc1ccc(Cl)cc1 | mL/min/kg | 9.44 |
| Cc1ccc([C@@]2(O)C[C@H](C(=O)Nc3ccc(-n4ccccc4=O)cn3)N(C(=O)Nc3ccc(Cl)cc3)C2)cc1 | mL/min/kg | 10.3 |

I. O=C(Nc1ccc(-n2ccccc2=O)cn1)[C@H]1C[C@](O)(c2ccc(F)cc2F)CN1C(=O)Nc1ccc(Cl)cc1
II. O=C(Nc1ccc(-n2ccccc2=O)cn1)[C@H]1C[C@](O)(c2ccc(F)c(F)c2)CN1C(=O)Nc1ccc(Cl)cc1
III. O=C(Nc1ccc(-n2ccccc2=O)cn1)[C@H]1C[C@](O)(c2ccccc2Cl)CN1C(=O)Nc1ccc(Cl)cc1
IV. O=C(Nc1ccc(-n2ccccc2=O)cn1)[C@H]1C[C@](O)(c2ccccc2C(F)(F)F)CN1C(=O)Nc1ccc(Cl)cc1
Query: Please give the order of these molecules when sorted by clearance, largest value leading. # format: label list in the order the request specifies
Result: II, I, III, IV
(II: 13.1 mL/min/kg, I: 7.64 mL/min/kg, III: 4.16 mL/min/kg, IV: 2.89 mL/min/kg)

###

Experiment: Half life in Sprague-Dawley rat at 0.5 mg/kg, iv
Type: ADME, organism-based
Design: dose 0.5 mg/kg, route intravenous
Settings: in vivo
MEASURED ENDPOINT: half-life (h)
Express your answer in h, writing the number without its unit.

Query: Read the entry O=C(Nc1ccc(-n2ccccc2=O)cn1)[C@H]1C[C@](O)(c2ccc(F)cc2F)CN1C(=O)Nc1ccc(Cl)cc1 and write its reported half-life.
Result: 3.3

###

Test: AUC (infinity) in Sprague-Dawley rat at 0.5 mg/kg, iv
Format: ADME, organism-based
Set-up: time infinity, dose 0.5 mg/kg, route intravenous
Settings: plasma
MEASURED ENDPOINT: AUC(0-inf) (ng·h/mL)
Express your answer in ng·h/mL, writing the number without its unit.

Query: Read the entry O=C(Nc1ccc(-n2ccccc2=O)cn1)[C@H]1C[C@](O)(c2ccc(F)cc2F)CN1C(=O)Nc1ccc(Cl)cc1 and write its reported AUC(0-inf).
Result: 978

###

Experiment: Half life in iv dosed rat by cassette studies
Format: ADME, organism-based
Conditions: in vivo
MEASURED ENDPOINT: half-life (h)

Reference set, count: 3
| STRUCTURE SMILES STRING | half-life (h) |
| --- | --- |
| CC[C@@]1(O)C[C@H](C(=O)Nc2ccc(-n3ccccc3=O)cc2F)N(C(=O)Nc2ccc(Cl)cc2)C1 | 2.4 |
| CO[C@]1(C)C[C@H](C(=O)Nc2ccc(-n3ccccc3=O)cc2F)N(C(=O)Nc2ccc(Cl)cc2)C1 | 1.7 |
| O=C(Nc1ccc(-n2ccccc2=O)cn1)[C@H]1C[C@](O)(c2ccccc2Cl)CN1C(=O)Nc1ccc(Cl)cc1 | 2.9 |

P. Cc1ccccc1[C@@]1(O)C[C@H](C(=O)Nc2ccc(-n3ccccc3=O)cn2)N(C(=O)Nc2ccc(Cl)cc2)C1
Q. O=C(Nc1ccc(-n2ccccc2=O)cn1)[C@H]1C[C@](O)(c2ccccc2)CN1C(=O)Nc1ccc(Cl)cc1
Query: Lowest half-life? choose P or Q Write down the label of the entry you select.
Result: P
(P: 1.3 h, Q: 2.9 h)

Each recorded value in this set is attributed to ChEMBL document CHEMBL1153922.
